Target: human MMP-12 (human, UniProt P39900 106-470, limits assumed)
Sequence (P39900 106-470 limits assumed): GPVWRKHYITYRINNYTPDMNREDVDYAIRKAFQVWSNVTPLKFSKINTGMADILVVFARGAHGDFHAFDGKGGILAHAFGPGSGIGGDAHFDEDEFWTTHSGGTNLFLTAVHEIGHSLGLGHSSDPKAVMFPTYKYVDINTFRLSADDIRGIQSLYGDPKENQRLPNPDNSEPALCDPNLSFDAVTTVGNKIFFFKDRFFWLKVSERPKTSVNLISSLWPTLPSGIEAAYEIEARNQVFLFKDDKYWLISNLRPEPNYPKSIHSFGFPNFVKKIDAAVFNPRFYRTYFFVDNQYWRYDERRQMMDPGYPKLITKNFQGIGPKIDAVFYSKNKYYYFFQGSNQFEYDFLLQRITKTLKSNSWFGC
Assay: cell-based or functional assay
Record form. Attribute: IC50hu. Fill in for each entry.
One number for each entry, in nM.

binder	unitOfMeasurement	IC50hu
539B-M0067-B06 (Fab, V domains shown) VH: EVQLLESGGGLVQPGGSLRLSCAASGFTFSWYWMHWVRQAPGKGLEWVSGIVSSGGTTIYADSVKGRFTISRDNSKNTLYLQMNSLRAEDTAVYYCAKDIRGAYSSGLFDYWGRGTLVTVSS VL: DIQMTQSPSSLSASVGDRVTITCRANQSIYTYLNWYQQKPGKAPELLIYAASSLQSGVPSRFSGSGSGTDFTLTISSLQPEDFATYYCQQAGIFGQGTKLEIK	nM	0.7
539B-M0065-H05 (Fab, V domains shown) VH: EVQLLESGGGLVQPGGSLRLSCAASGFTFSYYGMGWVRQAPGKGLEWVSVISSSGGFTFYADSVKGRFTISRDNSKNTLYLQMNSLRAEDTAVYYCAKDIRGAYSSGLFDYWGRGTLVTVSS VL: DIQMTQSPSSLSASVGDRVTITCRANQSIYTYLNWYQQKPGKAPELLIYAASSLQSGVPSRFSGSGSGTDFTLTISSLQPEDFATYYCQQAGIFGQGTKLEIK	nM	0.7

Below is a list of binders. For each, state its recorded IC50hu.
1. 539B-M0063-B11 (Fab, V domains shown) VH: EVQLLESGGGLVQPGGSLRLSCAASGFTFSPYWMHWVRQAPGKGLEWVSGIGPSGGLTFYADSVKGRFTISRDNSKNTLYLQMNSLRAEDTAVYYCAKDIRGAYSSGLFDYWGRGTLVTVSS VL: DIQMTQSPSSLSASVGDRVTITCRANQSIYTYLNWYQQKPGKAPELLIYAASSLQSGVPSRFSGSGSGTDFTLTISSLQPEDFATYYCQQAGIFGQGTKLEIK
2. 539B-M0071-D09 (Fab, V domains shown) VH: EVQLLESGGGLVQPGGSLRLSCAASGFTFSPYWMHWVRQAPGKGLEWVSGISSSGGDTLYADSVKGRFTISRDNSKNTLYLQMNSLRAEDTAVYYCAKDIRGAYSSGLFDYWGRGTLVTVSS VL: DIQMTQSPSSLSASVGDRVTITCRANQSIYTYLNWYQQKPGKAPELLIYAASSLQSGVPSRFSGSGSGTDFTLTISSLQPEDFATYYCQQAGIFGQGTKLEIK
3. 539B-M0069-C02 (Fab, V domains shown) VH: EVQLLESGGGLVQPGGSLRLSCAASGFTFSYYNMHWVRQAPGKGLEWVSGIGPSGGGTLYADSVKGRFTISRDNSKNTLYLQMNSLRAEDTAVYYCAKDIRGAYSSGLFDYWGRGTLVTVSS VL: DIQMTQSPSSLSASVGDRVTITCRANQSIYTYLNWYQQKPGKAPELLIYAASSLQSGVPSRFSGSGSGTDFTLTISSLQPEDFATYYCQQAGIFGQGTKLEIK
4. 539B-M0067-F06 (Fab, V domains shown) VH: EVQLLESGGGLVQPGGSLRLSCAASGFTFSWYNMSWVRQAPGKGLEWVSRISPSGGDTGYADSVKGRFTISRDNSKNTLYLQMNSLRAEDTAVYYCAKDIRGAYSSGLFDYWGRGTLVTVSS VL: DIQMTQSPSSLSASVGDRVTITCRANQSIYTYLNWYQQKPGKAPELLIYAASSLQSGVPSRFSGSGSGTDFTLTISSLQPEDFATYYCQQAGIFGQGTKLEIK

**Result**
1. 0.7
2. 2.4
3. 1.6
4. 0.7

All values here come from patent US8114968.
